Source of measurements: patent US11952365B2

Listed next: entries and their corresponding CC50.
EXPERIMENTAL PROTOCOL: in vitro
TEST SETTINGS: human
OUTCOME MEASURE: CC50

COMPOUND: O=C1NCC[C@H]1C[C@H](NC(=O)[C@@H]1[C@H]2CCC[C@H]2CN1C(=O)c1cc2c(Cl)cc(-c3ccccc3)cc2[nH]1)C(=O)CO [Compound 120]
MEASUREMENT: 1 to 10 µM
--
COMPOUND: O=C(NCc1ccccc1)C(=O)[C@H](Cc1ccncc1)NC(=O)[C@@H]1CC2(CC2)CN1C(=O)c1cc2ccccc2[nH]1 [Compound 112]
MEASUREMENT: > 10 µM
--
COMPOUND: O=C1NCC[C@H]1C[C@H](NC(=O)[C@@H]1[C@H]2CCC[C@H]2CN1C(=O)c1cc2c(Cl)c(F)cc(Cl)c2[nH]1)C(=O)CO [Compound 122]
MEASUREMENT: > 50 µM
--
COMPOUND: O=C1NCC[C@H]1C[C@H](NC(=O)[C@@H]1[C@H]2CCC[C@H]2CN1C(=O)c1cc2c(OC3CC3)cc(Cl)cc2[nH]1)C(=O)CO [Compound 138]
MEASUREMENT: > 50 µM
--
COMPOUND: O=C1NCC[C@H]1C[C@H](NC(=O)[C@@H]1[C@H]2CCC[C@H]2CN1C(=O)c1cc2c(Cl)cc(OCc3ccccc3)cc2[nH]1)C(=O)CO [Compound 130]
MEASUREMENT: > 10 µM
--
COMPOUND: O=C1NCC[C@H]1C[C@H](NC(=O)[C@@H]1[C@H]2CCC[C@H]2CN1C(=O)c1cc2c(OC(F)(F)F)cccc2[nH]1)C(=O)CO [Compound 64]
MEASUREMENT: > 10 µM
--
COMPOUND: C=C[C@@H]1C[C@@H](C(=O)N[C@@H](C[C@@H]2CCNC2=O)C(=O)C(=O)NCc2ccccc2)N(C(=O)c2cc3ccccc3[nH]2)C1 [Compound 30]
MEASUREMENT: > 100 µM
--
COMPOUND: O=C1NCC[C@H]1C[C@H](NC(=O)[C@@H]1[C@H]2CCC[C@H]2CN1C(=O)c1cc2c(Cl)cccc2[nH]1)C(=O)COCc1ccccc1 [Compound 60A]
MEASUREMENT: 1 to 10 µM
--
COMPOUND: O=C1NCC[C@H]1C[C@H](NC(=O)[C@@H]1[C@H]2CCC[C@H]2CN1C(=O)c1cc2c(Cl)cc(Cl)cc2[nH]1)C(=O)CO [Compound 91]
MEASUREMENT: > 10 µM
--
COMPOUND: COc1cccc2[nH]c(C(=O)N3C[C@@H]4CCC[C@@H]4[C@H]3C(=O)N[C@@H](C[C@@H]3CCNC3=O)C(=O)C(=O)NCCOc3ccccc3)cc12 [Compound 134]
MEASUREMENT: > 50 µM
--
COMPOUND: COc1cccc2[nH]c(C(=O)N3C[C@@H]4CCC[C@@H]4[C@H]3C(=O)N[C@@H](C[C@@H]3CCNC3=O)C(=O)C(=O)N[C@@H]3CCOC3)cc12 [Compound 105]
MEASUREMENT: > 100 µM
--
COMPOUND: COc1cccc2[nH]c(C(=O)N3C[C@@H]4CCC[C@@H]4[C@H]3C(=O)NC(C[C@@H]3CCCNC3=O)C(=O)C(=O)NC3CC3)cc12 (stereo partly drawn) [Compound 55]
MEASUREMENT: > 100 µM
